- Tested on: DU-145
- ASSAY PROTOCOL: Cytotoxicity against human DU145 cells after 48 hrs by SRB assay
- Type: functional, cell-based
- RUN CONDITIONS: Homo sapiens, DU-145, 48 h; read-out: LC50 (the source's name)
Form field: CC50 (one value per entry).
Answer in µM, number only, no unit symbol.

Form field: reported CC50 of `C/C=C1\NC(=O)[C@H](Cc2ccccc2)NC(=O)[C@@H](C(C)C)NC(=O)[C@@H]([C@H](C)CC)NC(=O)[C@H](NC(=O)[C@H](NC(=O)[C@H](CCCN)NC(=O)[C@H]2CCCN2C(=O)[C@H](NC(=O)[C@@H](NC(=O)[C@@H](NC(=O)[C@H](NC(=O)c2ccccc2)C(C)C)[C@@H](C)O)C(C)C)C(C)C)[C@H](C)CC)[C@H](C)OC(=O)[C@H](C(C)C)NC1=O`
1.04

Form field: reported CC50 of `C/C=C1\NC(=O)[C@H](Cc2ccccc2)NC(=O)[C@@H](C(C)C)NC(=O)[C@@H]([C@H](C)CC)NC(=O)[C@H](NC(=O)[C@H](NC(=O)[C@H](CCCNC(=O)CCOCCOCCN)NC(=O)[C@H]2CCCN2C(=O)[C@H](NC(=O)[C@@H](NC(=O)[C@@H](NC(=O)[C@H](NC(=O)CCCC(C)C)C(C)C)[C@@H](C)O)C(C)C)C(C)C)[C@H](C)CC)[C@H](C)OC(=O)[C@H](C(C)C)NC1=O`
0.982

----------
- Test system: SK-BR-3
- ASSAY PROTOCOL: Cytotoxicity against human SKBR3 cells after 48 hrs by SRB assay
- Format: functional
- RUN CONDITIONS: SK-BR-3, 48 h, read-out: LC50 (the source's name)
ENDPOINT NAME: CC50 (µM)
Answer in µM, number only, no unit symbol.

# annotated cases, reported CC50 shown
ITEM SMILES	CC50, µM
C/C=C1\NC(=O)[C@H](Cc2ccccc2)NC(=O)[C@@H](C(C)C)NC(=O)[C@@H]([C@H](C)CC)NC(=O)[C@H](NC(=O)[C@H](NC(=O)[C@H](CCCN)NC(=O)[C@H]2CCCN2C(=O)[C@H](NC(=O)[C@H](CCCN)NC(=O)[C@@H](NC(=O)[C@H](NC(=O)CCCC(C)C)C(C)C)[C@@H](C)O)C(C)C)[C@H](C)CC)[C@H](C)OC(=O)[C@H](C(C)C)NC1=O	1.05
C/C=C1\NC(=O)[C@H](Cc2c[nH]c3ccccc23)NC(=O)[C@@H](C(C)C)NC(=O)[C@@H]([C@H](C)CC)NC(=O)[C@H](NC(=O)[C@H](NC(=O)[C@H](CCCN)NC(=O)[C@H]2CCCN2C(=O)[C@H](NC(=O)[C@@H](NC(=O)[C@@H](NC(=O)[C@H](NC(=O)CCCC(C)C)C(C)C)[C@@H](C)O)C(C)C)C(C)C)[C@H](C)CC)[C@H](C)OC(=O)[C@H](C(C)C)NC1=O	0.425

Could you now consider this next compound?
Form field: reported CC50 of `C/C=C1\NC(=O)[C@H](Cc2ccccc2)NC(=O)[C@@H](C(C)C)NC(=O)[C@@H]([C@H](C)CC)NC(=O)[C@H](NC(=O)[C@H](NC(=O)[C@H](CCCN)NC(=O)[C@H]2CCCN2C(=O)[C@H](NC(=O)[C@@H](NC(=O)CNC(=O)[C@H](NC(=O)CCCC(C)C)C(C)C)C(C)C)C(C)C)[C@H](C)CC)[C@H](C)OC(=O)[C@H](C(C)C)NC1=O`
0.512

----------
- System: LNCaP
- ASSAY PROTOCOL: Cytotoxicity against human LNcaP cells after 48 hrs by SRB assay
- Assay type: functional
ENDPOINT NAME: GI50 (nM)
Answer in nM, number only, no unit symbol.

ITEM SMILES	ENDPOINT NAME	VALUE REPORTED
C/C=C1\NC(=O)[C@H](Cc2ccccc2)NC(=O)[C@@H](C(C)C)NC(=O)[C@@H]([C@H](C)CC)NC(=O)[C@H](NC(=O)[C@H](NC(=O)[C@H](CCCN)NC(=O)[C@H]2CCCN2C(=O)[C@H](NC(=O)[C@H](NC(=O)[C@@H](NC(=O)[C@H](NC(=O)CCCC(C)C)C(C)C)[C@@H](C)O)C(C)C)C(C)C)[C@H](C)CC)[C@H](C)OC(=O)[C@H](C(C)C)NC1=O	GI50	2440
C/C=C1\NC(=O)[C@H](Cc2ccccc2)NC(=O)[C@@H](C(C)C)NC(=O)[C@@H]([C@H](C)CC)NC(=O)[C@H](NC(=O)[C@H](NC(=O)[C@H](CCCN)NC(=O)[C@H]2CCCN2C(=O)[C@H](NC(=O)[C@@H](NC(=O)[C@@H](NC(=O)[C@@H](CC(C)C)NC(=O)CCCC(C)C)[C@@H](C)O)C(C)C)C(C)C)[C@H](C)CC)[C@H](C)OC(=O)[C@H](C(C)C)NC1=O	GI50	1790

Could you now consider this next compound?
Form field: reported GI50 of `C/C=C1\NC(=O)[C@H](Cc2ccccc2)NC(=O)[C@@H](C(C)C)NC(=O)[C@@H]([C@H](C)CC)NC(=O)[C@H](NC(=O)[C@H](NC(=O)[C@H](CCCN)NC(=O)[C@H]2CCCN2C(=O)[C@H](NC(=O)[C@@H](NC(=O)[C@@H](NC(=O)[C@H](NC(=O)CCCC(C)C)C(C)C)[C@@H](C)O)C(C)C)C(C)C)[C@H](C)CC)[C@@H](C)OC(=O)[C@H](C(C)C)NC1=O`
19300

----------
Form field: CC50 (one value per entry).
- ASSAY PROTOCOL: Cytotoxicity against human IGROV-ET cells after 48 hrs by SRB assay
- Assay type: functional
- RUN CONDITIONS: read-out: LC50 (the source's name)
Answer in nM, number only, no unit symbol.

# annotated cases, reported CC50 shown
ITEM SMILES	UNITS LABEL	CC50
C/C=C1\NC(=O)[C@H](Cc2c(F)c(F)c(F)c(F)c2F)NC(=O)[C@@H](C(C)C)NC(=O)[C@@H]([C@H](C)CC)NC(=O)[C@H](NC(=O)[C@H](NC(=O)[C@H](CCCN)NC(=O)[C@H]2CCCN2C(=O)[C@H](NC(=O)[C@@H](NC(=O)[C@@H](NC(=O)[C@H](NC(=O)CC[C@@H](C)CC)C(C)C)[C@@H](C)O)C(C)C)C(C)C)[C@H](C)CC)[C@H](C)OC(=O)[C@H](C(C)C)NC1=O	nM	1150
C/C=C1\NC(=O)[C@H](Cc2ccccc2)NC(=O)[C@@H](C(C)C)NC(=O)[C@@H]([C@H](C)CC)NC(=O)[C@H](NC(=O)[C@H](NC(=O)[C@H](CCCN)NC(=O)[C@@H]2CCCN2C(=O)[C@H](NC(=O)[C@@H](NC(=O)[C@@H](NC(=O)[C@H](NC(=O)CC[C@@H](C)CC)C(C)C)[C@@H](C)O)C(C)C)C(C)C)[C@H](C)CC)[C@H](C)OC(=O)[C@H](C(C)C)NC1=O	nM	549
C/C=C1\NC(=O)[C@H](Cc2ccccc2)NC(=O)[C@@H](C(C)C)NC(=O)[C@@H]([C@H](C)CC)NC(=O)[C@H](NC(=O)[C@H](NC(=O)[C@H](CCCN)NC(=O)[C@H]2CCCN2C(=O)[C@H](NC(=O)[C@@H](NC(=O)[C@@H](NC(=O)[C@H](NC(=O)c2ccccc2)C(C)C)[C@@H](C)O)C(C)C)C(C)C)[C@H](C)CC)[C@H](C)OC(=O)[C@H](C(C)C)NC1=O	nM	436
C/C=C1\NC(=O)[C@H](Cc2ccc(F)c(F)c2)NC(=O)[C@@H](C(C)C)NC(=O)[C@@H]([C@H](C)CC)NC(=O)[C@H](NC(=O)[C@H](NC(=O)[C@H](CCCN)NC(=O)[C@H]2CCCN2C(=O)[C@H](NC(=O)[C@@H](NC(=O)[C@@H](NC(=O)[C@H](NC(=O)CCCC(C)C)C(C)C)[C@@H](C)O)C(C)C)C(C)C)[C@H](C)CC)[C@H](C)OC(=O)[C@H](C(C)C)NC1=O	nM	515

Could you now consider this next compound?
Form field: reported CC50 of `C/C=C1\NC(=O)[C@H](c2ccccc2)NC(=O)[C@@H](C(C)C)NC(=O)[C@@H]([C@H](C)CC)NC(=O)[C@H](NC(=O)[C@H](NC(=O)[C@H](CCCN)NC(=O)[C@H]2CCCN2C(=O)[C@H](NC(=O)[C@@H](NC(=O)[C@@H](NC(=O)[C@H](NC(=O)CCCC(C)C)C(C)C)[C@@H](C)O)C(C)C)C(C)C)[C@H](C)CC)[C@H](C)OC(=O)[C@H](C(C)C)NC1=O`
536

Data provenance is ChEMBL document CHEMBL1156597.
